All figures here come from the supplement of paper PMC7877785.

Assay: self-splicing fitness, log relative to wild type (ln ratio); higher = more splicing; Tetrahymena group I intron in knt gene, E. coli kanamycin selection, DiMSum; sequences stand for … in CUCUCU…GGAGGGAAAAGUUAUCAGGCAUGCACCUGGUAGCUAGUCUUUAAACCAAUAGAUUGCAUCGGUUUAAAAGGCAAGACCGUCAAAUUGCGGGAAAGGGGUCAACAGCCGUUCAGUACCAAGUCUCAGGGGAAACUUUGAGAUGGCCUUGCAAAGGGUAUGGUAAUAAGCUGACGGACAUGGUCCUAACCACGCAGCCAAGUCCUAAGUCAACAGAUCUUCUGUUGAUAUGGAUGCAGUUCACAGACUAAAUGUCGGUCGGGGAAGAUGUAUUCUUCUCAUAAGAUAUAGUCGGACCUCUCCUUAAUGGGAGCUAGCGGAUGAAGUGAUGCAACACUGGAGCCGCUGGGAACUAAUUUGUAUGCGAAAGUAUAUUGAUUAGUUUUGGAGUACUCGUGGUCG;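 note: selection with 25 µg/mL kanamycin versus none on LB agar overnight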
Conditions: 37 °C
Hi, to clarify the labels: Criterion met covers self-splicing fitness (ln) from -0.9 upward, Criterion not met covers anything below -0.9.

>  <Sequence Data>
GAACAGCAAUAUUACGAACC

>  <Discrete Label>
Criterion met

$$$$
>  <Sequence Data>
AAAGAGCAAUAUUACGGUCC

>  <Discrete Label>
Criterion met

$$$$
>  <Sequence Data>
UAGUAGCAAUAUUACGGUGU

>  <Discrete Label>
Criterion not met

$$$$
>  <Sequence Data>
UUACAGCAAUAUUACGUCCG

>  <Discrete Label>
Criterion met

$$$$
>  <Sequence Data>
GCUGAGCAAUAUUACGGAGA

>  <Discrete Label>
Criterion not met

$$$$
>  <Sequence Data>
UGAAAGCAAUAUUACGUAUG

>  <Discrete Label>
Criterion not met

$$$$
>  <Sequence Data>
CCAUAGCAAUAUUACGUAGC

>  <Discrete Label>
Criterion not met

$$$$
>  <Sequence Data>
AUUCAGCAAUAUUACGAUCC

>  <Discrete Label>
Criterion met

$$$$

* * *

Test: self-splicing fitness, log relative to wild type (ln ratio); higher = more splicing; Tetrahymena group I intron in knt gene, E. coli kanamycin selection, DiMSum; sequences stand for … in CUCUCU…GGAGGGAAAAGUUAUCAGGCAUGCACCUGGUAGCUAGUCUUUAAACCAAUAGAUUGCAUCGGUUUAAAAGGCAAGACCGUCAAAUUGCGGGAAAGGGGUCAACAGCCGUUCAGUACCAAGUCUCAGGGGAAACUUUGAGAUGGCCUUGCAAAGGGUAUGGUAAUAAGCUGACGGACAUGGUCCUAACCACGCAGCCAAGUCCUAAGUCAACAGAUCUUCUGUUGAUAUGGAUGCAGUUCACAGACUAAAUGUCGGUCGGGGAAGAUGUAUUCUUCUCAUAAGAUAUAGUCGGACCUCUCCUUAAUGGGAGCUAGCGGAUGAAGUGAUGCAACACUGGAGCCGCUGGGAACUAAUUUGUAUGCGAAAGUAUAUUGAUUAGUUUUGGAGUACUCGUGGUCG
Settings: 30 °C

>  <Sequence Data>
CAUAAGCAAUAUUACGUCUA

>  <self-splicing fitness (ln)>
-2.41

$$$$
>  <Sequence Data>
AGAUAGCAAUAUUACGUGAG

>  <self-splicing fitness (ln)>
-1.89

$$$$
>  <Sequence Data>
GCCGAGCAAUAUUACGCGAC

>  <self-splicing fitness (ln)>
-2.44

$$$$
>  <Sequence Data>
GAUGAGCAAUAUUACGAUUA

>  <self-splicing fitness (ln)>
-2.57

$$$$
>  <Sequence Data>
GCAAAGCAAUAUUACGCAUC

>  <self-splicing fitness (ln)>
-1.98

$$$$
